tested on: Klebsiella pneumoniae; conditions: Concentration 32 ug.mL-1;; ASSAY_TEST Inhibition of Bacterial Growth; detection method Absorption (OD600); MEDIA CAMHB; plate type 384well; NBS; CORNING #3640; time 18 hr
Description: Antibacterial activity against Klebsiella pneumoniae MDR ATCC 70063 (CO-ADD:GN_003); MIC in CAMBH media using NBS plates, by OD(600)
Entries with a potency or affinity are not part of this list.
observation_type: Inhibition (%)
The answer is to be given in %; state only the numeric part.

Please review the following examples before continuing.
Cc1ccc(C)c(NC(=O)Cn2nc3cc(C)nc(Nc4ccc(F)cc4)n3c2=O)c1 = 5.73
COc1ccc(C)cc1NC(=O)Cn1nc2c3cc(-c4ccc(C)c(C)c4)nn3ccn2c1=O = 11.68

Now take the following compound into account.
Measured Inhibition, COc1ccc(Cl)cc1NC(=O)Cn1nc2c3cc(-c4ccc(C)c(C)c4)nn3ccn2c1=O : -20.97

----------
Measured Inhibition, listed per entry.
tested on: Candida albicans; settings: Concentration 32 ug.mL-1; ASSAY_TEST Inhibition of Fungal Growth; detection method Absorption (OD530)
Description: Antifungal activity against Candida albicans ATCC 90028 (CO-ADD:FG_001); MIC in YNB media using NBS plates, by OD630
Measured potencies and affinities stand elsewhere.
The answer is to be given in %; state only the numeric part.

The measured Inhibition that Cc1ccc(Oc2nccn3c(=O)n(CC(=O)Nc4ccc(Br)cc4F)nc23)cc1 showed for Candida albicans is 2.18

The measured Inhibition that CCOC(=O)c1ccc(NC(=O)Cn2nc3c4cc(-c5ccc(C)c(C)c5)nn4ccn3c2=O)cc1 showed for Candida albicans is 1.14

The measured Inhibition that Cc1ccccc1Oc1nccn2c(=O)n(CC(=O)Nc3ccccc3C(F)(F)F)nc12 showed for Candida albicans is -0.33

----------
system: Cryptococcus neoformans; conditions: Concentration 32 ug.mL-1; ASSAY_TEST Inhibition of Fungal Growth; detection method Resazurin; Absorption (OD600-OD570); plate type 384well; NBS; CORNING #3640
Description: Antifungal activity against Cryptococcus neoformans H99 ATCC 208821 (CO-ADD:FG_002); MIC in YNB media using NBS plates, by Resazurin OD(600-570)
Entries with a potency or affinity are not part of this list.
observation_type: Inhibition (%)
The answer is to be given in %; state only the numeric part.

Please review the following examples before continuing.
Cc1ccc(Sc2ccc3nn(CC(=O)Nc4cccc(Cl)c4)c(=O)n3n2)cc1 = -8.64
O=C(CSc1nc2ccccc2n2c(-c3ccccc3)nnc12)Nc1ccc(Br)cc1 = -26.76

Measured Inhibition, CCCc1nnc2c(=O)n(CC(=O)Nc3ccc(NC(C)=O)cc3)c3ccccc3n12 : -26.74

Measured Inhibition, COC(=O)c1ccc(Cn2nc3ccc(S(=O)(=O)N4CCCCCC4)cn3c2=O)o1 : -5.87

----------
tested on: Candida albicans; settings: Concentration 32 ug.mL-1; ASSAY_TEST Inhibition of Fungal Growth; detection method Absorption (OD530)
Measured potencies and affinities stand elsewhere.
Measured Inhibition, listed per entry.
The answer is to be given in %; state only the numeric part.

Please review the following examples before continuing.
Cc1nnc2c(=O)n(CC(=O)NC3CCCC3)c3ccccc3n12 = 0.18
O=C(Cn1nc2c3cc(-c4ccccc4)nn3ccn2c1=O)N1CCN(c2ccccc2F)CC1 = 1.75
COc1ccc(NC(=O)Cn2nc3c(Sc4cccc(F)c4)nccn3c2=O)cc1Cl = 0.26
COc1ccc(NC(=O)c2ccc3nn(CC(=O)Nc4ccccc4C(F)(F)F)c(=O)n3c2)cc1 = 5.37
COC(=O)c1ccc(NC(=O)Cn2nc3c4cc(-c5ccc(OC)cc5)nn4ccn3c2=O)cc1 = 0.9

Measured Inhibition, O=C(CSc1nnc2c(=O)n(-c3cccc(F)c3)ccn12)Nc1ccc(Br)cc1 : 6.65

Measured Inhibition, O=c1c2nnc(SCc3ccc(F)cc3)n2ccn1-c1ccc(Br)cc1 : 2.87

Measured Inhibition, O=C(CSc1nnc2c(=O)n(-c3ccc(Br)cc3)ccn12)c1c[nH]c2ccccc12 : 3.35

Measured Inhibition, COc1cc(OC)c(NC(=O)Cn2nc3c(Sc4ccc(C)cc4C)nccn3c2=O)cc1Cl : 4

Measured Inhibition, O=C(Cn1nc2ccc(Sc3cccc(F)c3)nn2c1=O)Nc1ccc2c(c1)OCCO2 : -0.05

Measured Inhibition, CCOc1ccc(N(Cc2cccc(F)c2)S(=O)(=O)c2ccc3nncn3c2)cc1 : 1.76

Measured Inhibition, CCOc1cccc(CNC(=O)CCc2nnc3ccc(-c4ccc(C)cc4)nn23)c1 : 2

Measured Inhibition, Cc1ccc(C)c(Cn2nc3c(=O)n(-c4cccc(Cl)c4C)ccn3c2=O)c1 : 2.62

----------
tested on: Cryptococcus neoformans; settings: Concentration 32 ug.mL-1; ASSAY_TEST Inhibition of Fungal Growth; detection method Resazurin; Absorption (OD600-OD570); plate type 384well; NBS; CORNING #3640
Measured potencies and affinities stand elsewhere.
observation_type: Inhibition (%)
The answer is to be given in %; state only the numeric part.

Please review the following examples before continuing.
Cc1cc2nn(CC(=O)Nc3ccccc3)c(=O)n2c(Nc2ccc(C)c(F)c2)n1 = -5.9
CC(C)Cn1c(=O)c2ccc(C(=O)NC3CCCCC3)cc2n2c(=O)n(CC#N)nc12 = -19.28

Now take the following compound into account.
Measured Inhibition, O=S(=O)(c1ccc2nncn2c1)N(Cc1cc(F)cc(F)c1)c1ccc(F)cc1 : -5.99

----------
Measured Inhibition, listed per entry.
test system: Candida albicans; conditions: Concentration 32 ug.mL-1; ASSAY_TEST Inhibition of Fungal Growth; detection method Absorption (OD530)
Measured potencies and affinities stand elsewhere.
The answer is to be given in %; state only the numeric part.

O=c1n(Cc2cccc(Cl)c2)nc2ccc(-c3ccccc3)nn12 = 2.36

Measured Inhibition, CCc1ccccc1Sc1nccn2c(=O)n(CC(=O)Nc3ccc(OC)cc3)nc12 : 4.23

Measured Inhibition, O=S(=O)(c1cccn2cnnc12)N(Cc1cccc(Cl)c1)c1ccc(F)cc1 : -0.14

Measured Inhibition, COc1cc(NC(=O)CSc2nnc3c(=O)n(-c4cccc(OC)c4)ccn23)cc(OC)c1 : 3.75

----------
system: Cryptococcus neoformans; settings: Concentration 32 ug.mL-1; ASSAY_TEST Inhibition of Fungal Growth; detection method Resazurin; Absorption (OD600-OD570); plate type 384well; NBS; CORNING #3640
Potency and affinity values are given separately.
Measured Inhibition, listed per entry.
The answer is to be given in %; state only the numeric part.

Please review the following examples before continuing.
Cc1cccc(Sc2nccn3c(=O)n(CC(=O)N4CCN(c5ccc(F)cc5)CC4)nc23)c1 = -30.97
CC(C)c1ccc(NC(=O)Cn2nc3c(Sc4ccccc4)nccn3c2=O)cc1 = -7.48
COc1cccc(Cn2nc3c(=O)n(-c4cccc(Cl)c4C)ccn3c2=O)c1 = -14.85
Cc1cc2nn(CC(=O)NCc3ccco3)c(=O)n2c(Nc2ccc(C)c(F)c2)n1 = -7.03
O=C(Cn1nc2ccc(-c3ccc(Cl)cc3)nn2c1=O)Nc1ccccc1 = -12.99

Now take the following compound into account.
The measured Inhibition that O=c1n(Cc2cccc(C(F)(F)F)c2)nc2c(S(=O)(=O)N3CCCCC3)cccn12 showed for Cryptococcus neoformans is -8.66

----------
tested on: Cryptococcus neoformans; conditions: Concentration 32 ug.mL-1; ASSAY_TEST Inhibition of Fungal Growth; detection method Resazurin; Absorption (OD600-OD570); plate type 384well; NBS; CORNING #3640
Entries with a potency or affinity are not part of this list.
Measured Inhibition, listed per entry.
The answer is to be given in %; state only the numeric part.

Measured Inhibition, COc1cccc(CNC(=O)CSc2nnc3c(=O)n(-c4ccc(C)c(C)c4)ccn23)c1OC : -5.22

Measured Inhibition, CCC(Sc1nnc2c(=O)n(-c3ccccc3)ccn12)C(=O)Nc1cc(F)ccc1F (stereo not drawn) : -17.31

Measured Inhibition, O=C(Cn1nc2c(N3CCOCC3)nc3ccccc3n2c1=O)NCc1ccccc1Cl : -3.24

Measured Inhibition, O=C(Cn1nc2c(SCc3ccccc3)nccn2c1=O)NC1CCCCC1 : -7.22

----------
system: Klebsiella pneumoniae; details: Concentration 32 ug.mL-1;; ASSAY_TEST Inhibition of Bacterial Growth; detection method Absorption (OD600); MEDIA CAMHB; plate type 384well; NBS; CORNING #3640; time 18 hr
Entries with a potency or affinity are not part of this list.
Measured Inhibition, listed per entry.
The answer is to be given in %; state only the numeric part.

Please review the following examples before continuing.
COc1cccc(-n2ccn3c(SCC(=O)c4ccc(C)cc4C)nnc3c2=O)c1 = 16.45
O=c1c2sccc2n2c(=O)n(Cc3cccc(Cl)c3)nc2n1CCc1ccccc1 = 11.95
O=c1c2nnc(SCc3cccc(C(F)(F)F)c3)n2ccn1-c1ccc(Br)cc1 = 4

Measured Inhibition, O=C(CSc1nnc2n(CC3CCCO3)c(=O)c3sccc3n12)Nc1ccc(F)cc1Cl (centres undefined) : 1.23

----------
Measured Inhibition, listed per entry.
system: Cryptococcus neoformans; conditions: Concentration 32 ug.mL-1; ASSAY_TEST Inhibition of Fungal Growth; detection method Resazurin; Absorption (OD600-OD570); plate type 384well; NBS; CORNING #3640
Measured potencies and affinities stand elsewhere.
The answer is to be given in %; state only the numeric part.

Please review the following examples before continuing.
CCCCc1ccc(NC(=O)CSc2nc3ccccc3n3c(C(C)C)nnc23)cc1 = -2.44
Cc1cc(C)cc(NC(=O)Cn2nc3c4cc(-c5ccc(Cl)cc5)nn4ccn3c2=O)c1 = -7.11
CCc1nnc2c(S(=O)(=O)N(Cc3cccc(F)c3)c3ccc(C)c(C)c3)cccn12 = -9.15
Cc1cccc(NC(=O)CSc2nnc3c(=O)n(-c4ccccc4)ccn23)c1 = -14.94

Now take the following molecule into account.
Measured Inhibition, Cc1nnc2ccc(S(=O)(=O)N(Cc3cccc(F)c3)c3ccc(F)c(F)c3)cn12 : -11.8
